Values compiled from ChEMBL document CHEMBL1800036.

target-system: Histone deacetylase 8 (Homo sapiens, UniProt Q9BY41)
Sequence (Q9BY41 whole entry): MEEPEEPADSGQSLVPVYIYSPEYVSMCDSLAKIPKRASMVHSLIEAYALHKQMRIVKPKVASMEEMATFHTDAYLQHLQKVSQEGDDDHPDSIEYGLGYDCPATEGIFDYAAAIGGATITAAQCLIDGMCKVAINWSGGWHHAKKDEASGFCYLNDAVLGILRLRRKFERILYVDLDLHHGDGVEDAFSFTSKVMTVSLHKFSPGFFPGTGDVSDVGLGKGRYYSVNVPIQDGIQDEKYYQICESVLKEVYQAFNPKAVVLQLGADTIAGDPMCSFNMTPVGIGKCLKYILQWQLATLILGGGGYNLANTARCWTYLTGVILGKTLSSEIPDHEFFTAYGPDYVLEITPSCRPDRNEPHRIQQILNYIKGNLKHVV
method-notes: Inhibition of recombinant HDAC8 assessed as inhibition of fluorogenic aminocoumarin release from substrate by trypsin-coupled biochemical assay
Here the recorded IC50 is given for each entry.

CCOC(=O)CC(=O)CSc1nc(C)cc(O)n1
> 100 µM

// returns reported IC50 for input "CC(=O)Nc1ccc(C(=O)COc2nc(C)cc(O)n2)cc1" > 100 µM

// returns reported IC50 for input "Cc1cc(O)nc(SCC(=O)c2ccccc2)n1" > 100 µM

// returns reported IC50 for input "COc1cc(C)nc(SCC(=O)c2ccc(NC(C)=O)cc2)n1" > 100 µM

// returns reported IC50 for input "Cc1cc(=O)[nH]c(SCC(=O)NCCCCc2ccccc2)n1" > 100 µM

// returns reported IC50 for input "CC(=O)N(C)c1ccc(C(=O)CSc2nc(C)cc(O)n2)cc1" > 100 µM

// returns reported IC50 for input "Cc1cc(=O)[nH]c(SCC(=O)c2ccc(NC(=O)c3ccccc3)cc2)n1" > 100 µM

// returns reported IC50 for input "Cc1cc(=O)[nH]c(SCC(=O)NCCCCCCc2ccccc2)n1" > 100 µM

// returns reported IC50 for input "Cc1cc(=O)[nH]c(SCC(=O)c2ccc(C(C)(C)C)cc2)n1" > 100 µM

// returns reported IC50 for input "Cc1cc(O)nc(SCC(=O)c2ccc(Cl)cc2)n1" > 100 µM
